# Test system: K562
# Method: Antiproliferative activity against human K562 cells assessed as reduction in cell viability at 25 uM after 72 hrs by MTS assay relative to control
# Type: functional
The source made the active and inactive calls. No cut-off for these calls is given here.
Possible outcomes: TRUE = active, FALSE = inactive

In [3]: df
Out[3]:
                                    compound  target_entity  classification
 0  COc1ccc(/C=C/C(=O)c2ccc(OCc3ccccc3)cc2)c(OC)c1OC           K562           FALSE
 1  O=C(/C=C/c1ccc(Cl)cc1)c1ccc(OCc2ccccc2)cc1           K562           FALSE
 2  COc1ccc(/C=C/C(=O)c2ccc3c(c2O)C=CC(C)(C)O3)cc1           K562           FALSE
 3    O=C(/C=C/c1ccccc1)c1ccc(OCc2ccccc2)cc1           K562           FALSE
 4  O=C(/C=C/c1ccc(F)cc1)c1ccc(OCc2ccccc2)cc1           K562           FALSE
 5  COc1ccc(C(=O)/C=C/c2ccc(OC)c(OC)c2)c(O)c1           K562            TRUE
 6       COc1ccc(/C=C/C(=O)c2ccc(OC)cc2O)cc1           K562            TRUE
 7  O=C(/C=C/c1ccccc1Cl)c1ccc(OCc2ccccc2)cc1           K562           FALSE
 8    O=C(/C=C/c1ccc(OCc2ccccc2)cc1)c1ccccc1           K562           FALSE
 9  O=C(/C=C/c1ccccc1)c1ccccc1O [2'-HYDROXYCHALCONE]           K562            TRUE
10  COc1cccc(/C=C/C(=O)c2ccc(OCc3ccccc3)cc2)c1           K562           FALSE
